- procedure_summary: yeast display, Sf9 membrane polyspecificity reagent, FACS + sequencing; frameworks hold sequencing errors
metric: polyreactivity (PSR sort gate)

Below, each entry is followed by its recorded polyreactivity (PSR sort gate) result.
Ask: Sample QDQLVESGGGLVQAGGSLRLSCAASGRIFTGNAMGWYRQAPGKERELVAAITKSGGSTYYADSVKGRFTISRDNAKNTVYLQMNSLKPEDTAVYYCAATRYLHYVYKYGYWGQGTQVTVSS — what was its polyreactivity (PSR sort gate)?
Reply: high polyreactivity

Ask: Sample QVQLVESGGGLVQAGGSLRLSCAASGSIFVANAMGWYRQAPGKERELVAVISSGGGSTSYADSVKGRFTISRDNAKNTVYLQMSSLKPEDTAVYDCTRRRYDAGSTMGYWGQGTQVTVSS — what was its polyreactivity (PSR sort gate)?
Reply: low polyreactivity

Ask: Sample QVQLVESGGGLVQAGCSLRLSCAASGFIFVFNAMGWYRQAPGKERELVAAINGGDITNYADSVKGRFTISRDNAKNTVYLQMNSMKPEDTAVYYCNADGYYFLISNANTLGYWGQGTQVNVSS — what was its polyreactivity (PSR sort gate)?
Reply: low polyreactivity

Ask: Sample QVQLVESGGGLVQAGGSLRLSCAASGITFRGYAMGWYRQAPGKERELVAAITWSGGSTYYADSVKGRFTISRDNAKNTVYLQMNSLKPEDTAVYYCAAYSLHNYLSEYGYWGQGTQVTVSS — what was its polyreactivity (PSR sort gate)?
Reply: high polyreactivity

Now consider the entry below.
Ask: Sample QVQLVESGGGLVQAGGSLRLSCAASGSIFRGNAMGWYRQAPGKERELVAAITSRGTSTYYADSVKGRFTISRDNAKNTVYLQMNSLKREDTAVYYCAARGYYLYWGQGTQVTVSS — what was its polyreactivity (PSR sort gate)?
Reply: high polyreactivity
